System Name: rσNS (Reovirus type 3, UniProt P03526)
Construct: made in house; host or cells: E. coli RR1 (pRK248cIts) carrying pRC23-S3
Sequence (P03526 whole entry): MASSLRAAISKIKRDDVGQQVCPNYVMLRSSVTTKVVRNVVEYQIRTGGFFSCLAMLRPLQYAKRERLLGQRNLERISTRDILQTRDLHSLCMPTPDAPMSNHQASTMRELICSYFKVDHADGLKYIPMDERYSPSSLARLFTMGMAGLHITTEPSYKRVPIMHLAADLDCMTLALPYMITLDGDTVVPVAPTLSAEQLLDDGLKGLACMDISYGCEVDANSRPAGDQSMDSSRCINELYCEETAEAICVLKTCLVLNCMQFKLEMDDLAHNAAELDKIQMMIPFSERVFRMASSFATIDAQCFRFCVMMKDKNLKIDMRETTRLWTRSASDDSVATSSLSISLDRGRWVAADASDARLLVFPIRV
Assay Protocol: Inhibition of binding of reovirus ssRNA to rσNS by ribonucleotides
Condition Context: read-out: % of [32P]-labeled reovirus ssRNA retained on nitrocellulose membrane, expressed as percentage of control, EXP. 2; ribonucleotide 10 mM
Measurement Name: remaining activity at 10000 µM (%)
Write it as a number; the unit % goes unstated.

What measured remaining activity at 10000 µM goes with Nc1ccn([C@@H]2O[C@H](COP(=O)(O)OP(=O)(O)OP(=O)(O)O)[C@@H](O)[C@H]2O)c(=O)n1 ?
81

Now the compound Nc1nc2c(ncn2[C@@H]2O[C@H](COP(=O)(O)OP(=O)(O)OP(=O)(O)O)[C@@H](O)[C@H]2O)c(=O)[nH]1
0

Now the compound O=c1ccn([C@@H]2O[C@H](COP(=O)(O)OP(=O)(O)OP(=O)(O)O)[C@@H](O)[C@H]2O)c(=O)[nH]1
68

Now the compound Nc1ncnc2c1ncn2[C@@H]1O[C@H](COP(=O)(O)OP(=O)(O)OP(=O)(O)O)[C@@H](O)[C@H]1O
95

----------
Please respond with reported remaining activity at 2000 µM for every item in the list.
System Name: rσNS (Reovirus type 3, UniProt P03526)
Construct: made in house; host or cells: E. coli RR1 (pRK248cIts) carrying pRC23-S3
Assay Protocol: Inhibition of binding of reovirus ssRNA to rσNS by ribonucleotides
Condition Context: read-out: % of [32P]-labeled reovirus ssRNA retained on nitrocellulose membrane, expressed as percentage of control, EXP. 1; ribonucleotide 2 mM (mixture 2 mM each); 130 ng rσNS per reaction
Write it as a number; the unit % goes unstated.

What measured remaining activity at 2000 µM goes with Nc1ccn([C@@H]2O[C@H](COP(=O)(O)OP(=O)(O)OP(=O)(O)O)[C@@H](O)[C@H]2O)c(=O)n1 ?
58

Now the compound Nc1nc2c(ncn2[C@@H]2O[C@H](COP(=O)(O)OP(=O)(O)OP(=O)(O)O)[C@@H](O)[C@H]2O)c(=O)[nH]1
5

Now the compound O=c1ccn([C@@H]2O[C@H](COP(=O)(O)OP(=O)(O)OP(=O)(O)O)[C@@H](O)[C@H]2O)c(=O)[nH]1
59

Now the compound Nc1ncnc2c1ncn2[C@@H]1O[C@H](COP(=O)(O)OP(=O)(O)OP(=O)(O)O)[C@@H](O)[C@H]1O
61
